# Test system: MDA-MB-231 breast
# assayProtocol: NCI tumour cell line growth inhibition, 48 h
Attribute: TGI
measuredAttribute: TGI

[[record]]
compound = "C/C=C(\\C)c1cc(=O)c2c(C)cc3c(c2o1)C(=O)c1c(O)c(C2CC(C)(N(C)C)C(OC(C)=O)C(C)O2)cc(C2CC(N(C)C)C(O)C(C)O2)c1C3=O (stereo not drawn)"
result = "5.96 µM"

[[record]]
compound = "COC(COC(N)=O)C1=C(N2CC2)C(=O)C(C)=C(N2CC2)C1=O (stereo not drawn)"
result = "0.859 µM"

[[record]]
compound = "COc1cc(/C=C/c2cc(/C=C/c3ccc(O)c(OC)c3)n(C(=O)c3ccc(Cl)cc3)n2)ccc1O"
result = "19.6 µM"

[[record]]
compound = "COC(=O)[C@@H]1c2cc3c(c(O)c2[C@@H](OC2OC(C)C(OC)C(C)(OC)C2OC)C[C@]1(C)O)C(=O)c1c(O)cc2c(c1C3=O)O[C@H]1O[C@]2(C)[C@H](O)[C@@H](N(C)C)[C@@H]1O (stereo partly drawn)"
result = "0.214 µM"

[[record]]
compound = "CN1C(=O)C2(C)SC1(c1ccccc1)C1C(=O)N(c3ccccc3)C(=O)C12 (stereo not drawn)"
result = "> 100 µM"

[[record]]
compound = "CC(C)C[C@H](NC(=O)CNC(=O)c1cc(Cl)ccc1Cl)B(O)O"
result = "0.14 µM"

[[record]]
compound = "CCOC(=O)Cc1csc(NC(NC(=O)OCC)(C(=O)OCC)C(F)(F)F)n1 (stereo not drawn)"
result = "> 100 µM"

[[record]]
compound = "CCCCN1C(=O)C2Cc3c([nH]c4ccccc34)C(c3cccc(O)c3)N2C1=O (stereo not drawn)"
result = "31.2 µM"

[[record]]
compound = "COc1ccc2c(c1)Cc1c(NCCN(C)C)ccc(C(=O)NCCCN(C)CCCNC(=O)c3ccc(NCCN(C)C)c4c3Nc3ccc(OC)cc3C4)c1N2"
result = "0.419 µM"

[[record]]
compound = "O=c1ccc2ccc(OP(=O)(O)O)cc2o1"
result = "> 100 µM"

[[record]]
compound = "O=C(O)CCNCC(=O)O"
result = "> 100 µM"

[[record]]
compound = "N#CC(c1ccccc1)N(CCCCCCN(C(=O)c1ccccc1)C(C#N)c1ccccc1)C(=O)c1ccccc1 (stereo not drawn)"
result = "> 100 µM"

[[record]]
compound = "FC1(F)[Se]C2C3CCC(C3)C2C1(F)F (stereo not drawn)"
result = "> 100 µM"

[[record]]
compound = "Cc1ccc(O)c(C(c2cccc(C(c3cc(C)ccc3O)c3cc(C)ccc3O)c2)c2cc(C)ccc2O)c1"
result = "2.83 µM"

[[record]]
compound = "Cc1ccc(O)c(Cc2nc3ccccc3nc2-c2cccc(Cl)c2)c1"
result = "> 100 µM"

[[record]]
compound = "NS(=O)(=O)OC[C@H]1C[C@@H](Nc2ccnc3cc(-c4cccc(SC(F)(F)F)c4)nn23)[C@H](O)[C@@H]1O"
result = "0.0867 µM"

[[record]]
compound = "COC(=O)CCC(=O)c1ccc2c(c1)CCC2"
result = "> 100 µM"

[[record]]
compound = "O=C(Nc1ccccc1)c1cc(S(=O)(=O)Nc2n[nH]c(=O)n2-c2ccccc2)c(S)cc1Cl"
result = "> 100 µM"

